Experimental target: T1, recombinant human IP-10 (hIP-10) (human, UniProt P02778 22-98)
T1 sequence (looked up): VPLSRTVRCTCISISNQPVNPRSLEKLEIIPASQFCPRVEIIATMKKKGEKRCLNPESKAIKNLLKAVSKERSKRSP
Measurement notes: cell-based or functional assay
Hi there, I'd appreciate the recorded Calcium flux IC50 (nM); 10 nM hIP-10; hCXCR3 L1.2 cells for every entry that follows.
One number for each entry, in nM.

Please review the entries below; each comes with its answer.
[[record]]
binder = "CB2R2P4_C3, scFv format (scFv) QVTLRESGPALVKPTQTLTLTCTFSGFSLTTSGMSVIWIRQPPGKALEWLARIDSDDEKHYNTSLKTRLAISKDTSKNQVVLTMTNMDPVDTGTYYCARLRAGSGPYVFDSWGQGTTVTVSSQSVLTQPPSASGTPGQRVTISCSGSSSNIGSNTVNWYQRLPGAAPQLLIYNNDQRPSGIPDRFSGSKSGTSGSLVISGLQSEDEADYYCASWDDSLNGRVFGGGTKLTVL"
units = "nM"
measurement = 14

[[record]]
binder = "CC21R3P1_B9, scFv format (scFv) EVQLVQSGGGVVQPGRSLRLSCAASGFTFSSYGMHWVRQAPGKGLEWVAVISYDGSNKYYADSVKGRFTISRDNSKNTLYLQMNSLRAEDTAVYYCAKDGGWYDWYFDLWGRGTLVTVSSSSELTQDPDVSVALGQTVRITCQGDSLTSYYASWYQQKPGQAPVLVISGNDNRPSGIPDRFSGSNSGNTASLTITGAQAEDAADYYCGSRDSSGYQVVFGAGTKLTVL"
units = "nM"
measurement = 107


Give Calcium flux IC50 (nM); 10 nM hIP-10; hCXCR3 L1.2 cells for all binders that follow.
1. CB21R3P6_G7, scFv format (scFv) QVQLVQSGAEVKKPGSSVTVSCKASGGTFSSFSITWLRQAPGQGLEWMGEITPMFGIANYAQKFQGRVTISADESTSTAYMELSGLTSEDTAMYYCARDGRFDVSDLLTDKPKVTINYNGMDVWGQGTLVTVSSQSVLTQPPSASGTPGQRVTISCSGSSSNIGSNTVNWYQRLPGAAPQLLIYNNDQRPSGIPDRFSGSKSGTSGSLVISGLQSEDEADYYCASWDDSLNGRVFGGGTKLTVL
2. CC21R3P4_F4, scFv format (scFv) QVQLVESGGGVAHSGKSLRLSCAASGFTFSNYGMHWVRQAPGKGLEWLAVISYDGSNRYYADSVKGRFTISRDNSNNTLNLQMSSLRAEDTALYYCAKDAGGPLDYWGRGTLVTVSSSYVLTQPPSVSVAPGQMARITCGGNNIGDKSVQWYQQRPGQAPLLVVYDDSDRPSGIPERFSGSYSRNTATLTISRVEAGDEADYYCQVWDSSSDHPEVVFGGGTKLTVL

[out]
46
107
